Test system: UACC-257 melanoma
experiment_summary: NCI tumour cell line growth inhibition, 48 h
Could you please report measured TGI for the items listed next?

Exercise: State, in one line, measured TGI of `Cc1cccc(NC(=O)Cn2cnc3sc(C(=O)OC(C)C)c(C)c3c2=O)c1`
Key: > 50 µM

Exercise: State, in one line, measured TGI of `O=C(CSc1ccc(Cl)cc1)Nc1ccc(-c2nc3ccccc3s2)c(Cl)c1`
Key: > 100 µM

Exercise: State, in one line, measured TGI of `O=C(Nc1ccc(Cl)cc1)c1cccc(NC2=C(Cl)C(=O)N(Cc3ccccc3)C2=O)c1`
Key: 43.3 µM

Exercise: State, in one line, measured TGI of `N#Cc1c(-c2ccccc2)/c(=C\Nc2ccc(F)cc2)c(=O)n2c1nc1ccccc12`
Key: > 100 µM

Exercise: State, in one line, measured TGI of `[Cl-].[La+3].[O-]/N=C(\c1ccccc1)c1ccccn1.[O-]/N=C(\c1ccccc1)c1ccccn1.[O-]/N=C(\c1ccccc1)c1ccccn1`
Key: > 100 µM

Exercise: State, in one line, measured TGI of CCNC(=O)Cc1nc2c(N)ncnc2n1C1OC(CO)C(O)C1O (centres undefined)
Key: > 100 µM

Exercise: State, in one line, measured TGI of `CCCSCC(P(=O)(O)O)P(=O)(O)O`
Key: > 100 µM

Exercise: State, in one line, measured TGI of `N=C(N)SCc1ccc2c(c1)Sc1ccccc1O2`
Key: 14.2 µM

Exercise: State, in one line, measured TGI of `COc1cc(/C=C/c2cc(O)c(C(C)=O)c(O)c2)cc2c1O[C@]1(C)CC[C@@H](O)C(C)(C)[C@H]1C2`
Key: 72.7 µM

###

Test system: SK-OV-3 ovarian
experiment_summary: NCI tumour cell line growth inhibition, 48 h
Could you please report measured TGI for the items listed next?
Dear colleague, please return just the value in µM, with no unit written.

Exercise: State, in one line, measured TGI of `OCCc1ccsc1-c1sc(-c2cc(CCO)c(-c3sccc3CCO)s2)cc1CCO`
Key: 35.8

Exercise: State, in one line, measured TGI of `C=CCSc1nnc2cc(CN3CCCC3)c(-c3ccc(Cl)cc3)nn12`
Key: 55.5

Exercise: State, in one line, measured TGI of `N=C(N)SCc1ccc2c(c1)Sc1ccccc1O2`
Key: 27

Exercise: State, in one line, measured TGI of `O=C(CCc1nnc2sc(-c3ccc(Cl)cc3Cl)nn12)c1nc2ncccc2[nH]1`
Key: 58

Exercise: State, in one line, measured TGI of Nc1ncnc2c1nnn2C1OC(CO)C(O)C1O (configuration not stated)
Key: 1.95

Exercise: State, in one line, measured TGI of `OCCCCCNCc1cc2cc3c(cc2c2cc(OCc4ccccc4)ccc12)OCO3`
Key: 7.94

Exercise: State, in one line, measured TGI of Brc1ccccc1C1SCc2nc3ccccc3n21 (configuration not stated)
Key: 56.7

Exercise: State, in one line, measured TGI of `ClCc1cccc(Cn2cnc3ncnc(Cl)c32)c1`
Key: 25.5

Exercise: State, in one line, measured TGI of `CCOC(=O)C(=C=C=C(c1ccccc1)c1ccccc1)C(=O)OCC`
Key: 50.3

Exercise: State, in one line, measured TGI of CC1=NN(c2cccc(Cl)c2)C2(SCC(=O)N2c2nc3ccccc3s2)/C1=C\c1ccccc1O (configuration not stated)
Key: 51.3
